Read-out: TIMP metallopeptidase inhibitor 1 (TIMP1), TIMP1 (gene 7076)
measurement-protocol: BSK_hDFCGF_TIMP1: BioMAP Diversity Plus: hDFCGF Assay for TIMP metallopeptidase inhibitor 1 (TIMP1) Biomarker Activity (AID 2283062)
experimental-conditions: primary human foreskin fibroblasts; actives raise or lower the signal
Calls of active or inactive are those of the source. The calls were made as follows: active = hit-call score of the fitted dose curve at least 0.9, where 1 is the maximum; inactive = score below 0.9.
outcome-measure: AC50

CN1C(=O)N(C)C(O)C1O (stereo unspecified)    inactive
O=C1CCCN1CCO    inactive
S=C(NC1CCCCC1)NC1CCCCC1    inactive
C=C[Si](OC(C)=O)(OC(C)=O)OC(C)=O    inactive
C=CCOc1c(Br)cc(Br)cc1Br    8.19 µM (active)
CCCCNc1ccc(NCCCC)c2c1C(=O)c1ccccc1C2=O    inactive
O=C(Cl)c1cc(C(=O)Cl)cc(C(=O)Cl)c1    13.7 µM (active)
CC1OC1C1CCC2(C)OC2C1 (stereo unspecified)    inactive

Give one value of AC50 per listed molecule.
1. O=c1c2ccccc2oc2ccccc12
2. C/C=C\C/C=C/CCCCCCCCOC(C)=O
3. COCc1c(C(C)C)nc(C(C)C)c(/C=C/[C@@H](O)C[C@@H](O)CC(=O)O)c1-c1ccc(F)cc1
4. c1ccc(-c2ccccn2)nc1
5. C#CC1(O)CC[C@H]2[C@@H]3CCC4=CCCC[C@@H]4[C@H]3CC[C@@]21C (stereo partly specified)

Solution:
inactive
30.4 µM (active)
inactive
inactive
33 µM (active)

###

target-under-test: X-box-binding protein 1 (Homo sapiens)
measurement-protocol: ATG_Xbp1_CIS: Attagene CIS-FACTORIAL HepG2 Assay for human X-box Binding Protein 1 (XBP1) (AID 2282972)
experimental-conditions: HepG2 XBP1 cis-element reporter, Attagene multiplex; actives raise or lower the signal
Active and inactive are the calls of the source. Rule for the calls: active = hit-call score of the fitted dose curve at least 0.9, where 1 is the maximum; inactive = score below 0.9.
Choose the fitting class; nothing outside label 1 = active, label 0 = inactive is accepted.

# example entries with known answers
O=C(c1ccccc1)C1CCC1    label 0
CCCCCC/C=C\CCCCCCCC(=O)O    label 0

Now look at this entry.
Problem: Test call, this compound: CCOC(=O)NNc1nncc2ccccc12
Solution: label 0

###

target-under-test: Retinoic acid receptor alpha (Homo sapiens)
measurement-protocol: ATG_RARa_TRANS: Attagene TRANS-FACTORIAL HepG2 Assay for human Retinoic Acid Receptor alpha (RARa) (AID 2283005)
Records with an inconclusive call do not appear. Calls of active or inactive are those of the source. Rule for the calls: active = hit-call score of the fitted dose curve at least 0.9, where 1 is the maximum; inconclusive = response in the unintended direction; inactive = score below 0.9.
Choose the fitting class; nothing outside T (active), F (inactive) is accepted.

# example entries with known answers
COC(=O)c1sccc1S(N)(=O)=O    F
CNC(=S)N(C)C    F
CCCCCCCCCCCSCC(=O)O    F
CCCNC(=O)NS(=O)(=O)c1ccc(Cl)cc1    F

Problem: Test call, this compound: Cc1ccc2oc(=O)ccc2c1
Solution: F

Problem: Test call, this compound: O=C1C=CC(=O)O1
Solution: F

###

measurement-protocol: ATG_SREBP_CIS: Attagene CIS-FACTORIAL HepG2 Assay for human Sterol Regulatory Element Binding (SREBP) (AID 2282962)
experimental-conditions: HepG2 Attagene cis-factorial SREBP reporter, mRNA; actives raise or lower the signal
The source made the active and inactive calls. Rule for the calls: active = hit-call score of the fitted dose curve at least 0.9, where 1 is the maximum; inactive = score below 0.9.
Choose the fitting class; nothing outside active, inactive is accepted.

CC(=O)OCC(C)OC(C)=O (stereo not drawn)    inactive
CC(C)(C)C(=O)C=Cc1ccc(Cl)cc1    inactive
CCCCCCC1(C)CCC(=O)O1 (stereo not drawn)    inactive
CCCCCCCCCCOC(C)=O    inactive

Problem: Test call, this molecule: OCCc1ccncc1
Solution: inactive

Problem: Test call, this molecule: C=CC(=O)OCCOC(=O)C=C
Solution: inactive

Problem: Test call, this molecule: Nc1ccc(Oc2ccc(N)c(N)c2)cc1
Solution: inactive

Problem: Test call, this molecule: Oc1ccc(Cl)cc1Cc1cc(Cl)ccc1O
Solution: active

###

target-under-test: Nuclear respiratory factor 1 (Homo sapiens) (UniProt Q16656)
Sequence (Q16656 whole entry, looked up): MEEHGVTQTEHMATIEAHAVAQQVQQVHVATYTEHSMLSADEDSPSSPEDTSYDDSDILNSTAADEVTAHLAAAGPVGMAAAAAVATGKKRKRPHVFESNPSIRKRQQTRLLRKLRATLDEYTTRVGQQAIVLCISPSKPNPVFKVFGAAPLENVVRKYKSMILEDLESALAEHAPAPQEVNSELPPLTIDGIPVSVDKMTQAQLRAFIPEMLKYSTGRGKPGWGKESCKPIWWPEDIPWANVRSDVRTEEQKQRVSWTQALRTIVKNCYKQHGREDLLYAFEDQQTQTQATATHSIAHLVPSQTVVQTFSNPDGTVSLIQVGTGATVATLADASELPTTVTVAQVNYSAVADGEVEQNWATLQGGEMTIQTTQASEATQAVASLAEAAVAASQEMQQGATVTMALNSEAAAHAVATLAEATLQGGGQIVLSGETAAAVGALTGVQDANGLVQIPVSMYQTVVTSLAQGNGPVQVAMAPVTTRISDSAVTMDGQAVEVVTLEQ
measurement-protocol: ATG_NRF1_CIS: Attagene CIS-FACTORIAL HepG2 Assay for human Nuclear Respiratory Factor 1 (NRF1) Orphan Gene (AID 2282987)
experimental-conditions: HepG2 NRF1 cis-element reporter, Attagene multiplex; actives raise or lower the signal
Calls of active or inactive are those of the source. The calls were made as follows: active = hit-call score of the fitted dose curve at least 0.9, where 1 is the maximum; inactive = score below 0.9.
Choose the fitting class; nothing outside 1 for active, 0 for inactive is accepted.

# example entries with known answers
C[Si](C)(CCCN)O[Si](C)(C)CCCN    0
C=C[C@](C)(O)CC[C@@H]1[C@@]2(C)CCCC(C)(C)[C@@H]2CC[C@@]1(C)O    0
CCC(C)OC(=O)c1ccc(O)cc1 (configuration not stated)    0
O=C(O)CCCCCCCCCC(=O)O    0
NC(=O)OCC(COC(N)=O)c1ccccc1    0

Problem: Test call, this compound: N#CCc1ccc(Cl)cc1Cl
Solution: 0

Problem: Test call, this compound: CC(C)(C)c1ccc(N)cc1
Solution: 0

Problem: Test call, this compound: COCCCOCCCOC
Solution: 0

Problem: Test call, this compound: CCCCCCCCO[C@@H]1O[C@H](CO)[C@@H](O)[C@H](O)[C@H]1O
Solution: 0

Problem: Test call, this compound: Clc1nc2ccccc2s1
Solution: 0

Problem: Test call, this compound: Nc1ncn([C@@H]2O[C@H](CO)[C@@H](O)[C@H]2O)c(=O)n1
Solution: 0

Problem: Test call, this compound: C=C(C)[C@@H]1CCC2=CCC[C@@H](C)[C@]2(C)C1
Solution: 0

Problem: Test call, this compound: CO[Si](OC)(OC)c1ccccc1
Solution: 0

Problem: Test call, this compound: Cc1cccc(C(=O)O)c1
Solution: 0

Problem: Test call, this compound: CCCCCCC1(C)CCC(=O)O1 (configuration not stated)
Solution: 0

Problem: Test call, this compound: O=Cc1ccc(CO)o1
Solution: 0

Problem: Test call, this compound: Cc1cnc(NC(=O)C2=C(O)c3ccccc3S(=O)(=O)N2C)s1
Solution: 0

Problem: Test call, this compound: CCC(=O)Oc1ccc(/C(CC)=C(\CC)c2ccc(OC(=O)CC)cc2)cc1
Solution: 1

Problem: Test call, this compound: FC(F)(F)C(=NOCC1OCCO1)c1ccc(Cl)cc1
Solution: 0

Problem: Test call, this compound: O=C(C(Cl)Cl)N1CCOC12CCCCC2
Solution: 0

Problem: Test call, this compound: O=C(c1ccccc1)C1CCC1
Solution: 0

Problem: Test call, this compound: CCC(Cc1ccccc1)(C(=O)c1ccc(N2CCOCC2)cc1)N(C)C (configuration not stated)
Solution: 1

Problem: Test call, this compound: CCOC(=O)c1ccccc1C(=C1C=C(Br)C(=O)C(Br)=C1)c1cc(Br)c(O)c(Br)c1
Solution: 0

###

measurement-protocol: CEETOX_H295R_CORTIC: CeeTox H295R High-throughput Steroidogenesis Assay for Corticosterone (CORTIC) (AID 2283437);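 also: corticosterone secreted into medium quantified by mass spectrometry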
experimental-conditions: actives raise or lower the signal
Active and inactive are the calls of the source. How the source made its calls: active means hit-call score of the fitted dose curve at least 0.9, where 1 is the maximum; inactive means score below 0.9.
Choose the fitting class; nothing outside active, inactive is accepted.

# example entries with known answers
CCCCNc1ccc(NCCCC)c2c1C(=O)c1ccccc1C2=O    inactive
S=C(NC1CCCCC1)NC1CCCCC1    inactive
O=C(C=Cc1ccccc1)OCc1ccccc1    active

Now look at this entry.
Problem: Test call, this compound: COc1ccc2nc(N)sc2c1
Solution: inactive

###

target-under-test: CCAAT/enhancer-binding protein beta (Homo sapiens)
measurement-protocol: ATG_C_EBP_CIS: Attagene CIS-FACTORIAL HepG2 Assay for human CCAAT/Enhancer Binding Protein (C/EBP) beta (AID 2282927)
experimental-conditions: HepG2 Attagene cis-factorial transcription factor reporter; actives raise or lower the signal
Active and inactive are the calls of the source. The calls were made as follows: active = hit-call score of the fitted dose curve at least 0.9, where 1 is the maximum; inactive = score below 0.9.
Choose the fitting class; nothing outside Yes for active, No for inactive is accepted.

# example entries with known answers
CCN(CCC#N)c1ccc(N=Nc2c(Cl)cc([N+](=O)[O-])cc2Cl)cc1    No
Cc1ccc(C(C)c2ccc(C)c(C)c2)cc1C    No

Problem: Test call, this compound: Cc1ccc([N+](=O)[O-])cc1S(=O)(=O)O
Solution: No

Problem: Test call, this compound: N=c1ccn2c(n1)O[C@H]1[C@H](O)[C@@H](CO)O[C@H]12
Solution: No

Problem: Test call, this compound: O=C(c1ccccc1)C1CCC1
Solution: No

Problem: Test call, this compound: CC(C)(C)c1ccc(OC(=O)c2ccccc2O)cc1
Solution: No

Problem: Test call, this compound: C=CC(=O)OCCC(=O)O
Solution: No

Problem: Test call, this compound: C=C(C)C(=O)OCCO
Solution: No

Problem: Test call, this compound: c1cc(C(c2ccc(OCC3CO3)cc2)C(c2ccc(OCC3CO3)cc2)c2ccc(OCC3CO3)cc2)ccc1OCC1CO1 (stereo not given)
Solution: No

###

measurement-protocol: ATG_Ets_CIS: Attagene CIS-FACTORIAL HepG2 Assay for human Erythroblast Transformation Specific (ETS) (AID 2282941)
experimental-conditions: HepG2 ETS cis-reporter transcription, actives raise or lower the signal
Active and inactive are the calls of the source. The calls were made as follows: active = hit-call score of the fitted dose curve at least 0.9, where 1 is the maximum; inactive = score below 0.9.
outcome-measure: outcome

Here is how some compounds turned out for outcome.
[Cl][In]([Cl])[Cl]    inactive
CO[Si](OC)(OC)c1ccccc1    inactive
COc1ccc(NC(C)=O)cc1N    inactive
CC(C)c1ccc2c(c1)CC[C@H]1[C@](C)(CN)CCC[C@]21C    inactive
Nc1nc2ccccc2[nH]1    inactive

Give one value of outcome per listed compound.
1. Cc1ccccc1C
2. COC(=O)c1sccc1S(N)(=O)=O
3. CCCCCCOC(=O)C(C)CC (centres undefined)
4. CCCCC(CC)CCC(CC(C)C)OS(=O)(=O)O (centres undefined)

Solution:
["inactive", "inactive", "inactive", "inactive"]

Give one value of outcome per listed compound.
1. N#CCc1ccc(Cl)cc1Cl
2. CCCCCc1ccc(Cl)cc1
3. O=C1CCCCCN1SSN1CCCCCC1=O
4. CC(=O)[C@H]1[C@H](C#N)C[C@H]2[C@@H]3CC=C4C[C@@H](O)CC[C@]4(C)[C@H]3CC[C@@]21C
5. CCCC(=O)OCc1ccccc1

Solution:
inactive
inactive
inactive
inactive
inactive
